Target: T1, recombinant human domain 1-3His6 of the cation-independent mannose-6-phosphate receptor (human, UniProt P11717 41-467)
T1 construct: Biotinylated (NHS-PEG4-biotin) for BLI; Glycosylated; also called hDom1-3His6; hCI-M6PRD1-D3
Assay: BLI exp 1, dissoc pH 6
Procedure: For each of the 11 anti-CI-M6PR VHHs, a biolayer interferometry (BLI) experiment was performed in which the hDom₁₋₃His₆ was biotinylated and coupled to streptavidin biosensor tips. Afterwards, the tips were incubated with serially diluted VHHs during the association phase and dissociation was performed at pH 7.4. Similarly, dissociation was performed at pH 7.0, pH 6.0 and pH 5.0 as well after regeneration of the biosensor tips. […]
Measured koff values are reported for all entries that follow.
# number then unit; no other words

INSERT INTO measurements (binder, test_readout, reported) VALUES
  ('anti-CI-M6PR VHH11 (VHH, His6-tagged; made in Pichia pastoris) VHH: QVQLQESGGGLVQAGDSLKLSCTASGPTFSEITGGWFRQVPGKEREFVASISSTGITTYYTDSVKGRFTVSRDNAKNTMYLQMNSLKPEDTGVYYCAARSTSRSIAITVGYDYWGQGTQVTVSS', 'koff', '0.00665 s⁻¹'),
  ('anti-CI-M6PR VHH10 (VHH, His6-tagged; made in Pichia pastoris) VHH: QVQLQESGGGSVQAGGSLRLSCAPAGRTFSRIRMGWFRQAPGKEREFVAAISSGGLSYYADSMKGRFTISRDNAKNTVLLQMNSLEPDDTAVYYCAAVLNDYIDDYVARNPTLYDYWGQGTQVTVSS', 'koff', '0.00205 s⁻¹');

Next binder, please.
Lookup: Query: koff; subject: anti-CI-M6PR VHH6 (VHH, His6-tagged; made in E. coli) VHH: QVQLQESGGGLVQAGGSLRLSCAVSGSISSIGGMGWFRQAPGKQREFVAVILNNSGMTSYADSVKGRFTISRGNSKNTMYLQMNSLKPEDTAVYYCNYSGYWGQGTQVTVSS
Found: 0.00242 s⁻¹
